biological target: WT KRAS:SOS1 (Homo sapiens)
Sequence (P01116 1-188 isoform P01116-2): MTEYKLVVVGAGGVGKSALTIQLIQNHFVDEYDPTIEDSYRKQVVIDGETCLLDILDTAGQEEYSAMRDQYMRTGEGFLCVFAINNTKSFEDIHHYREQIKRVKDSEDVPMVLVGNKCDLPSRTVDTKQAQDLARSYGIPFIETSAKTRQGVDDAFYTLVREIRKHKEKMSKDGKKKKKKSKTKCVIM
Reported IC50 values for a set of compounds

| COMPOUND | INEQUALITY_SYMBOL | IC50 / nM |
| --- | --- | --- |
| CN(C)C1CN(c2nc(N3CCNCC3)c3cc(Cl)c(-c4cc(O)cc5ccccc45)c(F)c3n2)C1 [Example E2] | > | 50000 |
| CN(C)CCCOc1nc(N2CC3CCC2CN3)c2cc(Cl)c(-c3ccc(F)c4sc(N)nc34)c(F)c2n1 (stereo not shown) [Example E4] | = | 1100 |
| Cc1cc(N)nc(-c2c(Cl)cc3c(N4CC5CCC(C4)N5)nc(OC[C@@H]4C[C@@H](F)CN4C)nc3c2F)c1C(F)(F)F [Example E37] | = | 692 |
| CN1C[C@H](F)C[C@H]1COc1nc(N2CC3CCC(C2)N3)c2cc(Cl)c(-c3ccc(F)c4sc(N)nc34)c(Cl)c2n1 [Example E53] | = | 132 |
| CS(=O)(=O)N1CCN(c2nc(OC[C@@H]3CCCN3CCCOCCC(=O)NCCOCCNC(=O)CCCC[C@@H]3SC[C@@H]4NC(=O)N[C@@H]43)nc3c2CCN(c2cccc4cccc(Cl)c24)C3)C[C@@H]1CC#N [Example E57] | = | 130 |
| C[C@@H](CN1CCCCC1)Oc1nc(N2CC3CCC(C2)N3)c2cc(Cl)c(-c3ccc(F)c4sc(N)nc34)c(F)c2n1 [Example E11] | = | 30 |
| C[C@@H](CN1CC=CCC1)Oc1nc(N2CC3CCC(C2)N3)c2cc(Cl)c(-c3ccc(F)c4sc(N)nc34)c(F)c2n1 [Example E33] | = | 143 |
| C[C@@H](CN1CCC(F)(F)C1)Oc1nc(N2CC3CCC(C2)N3)c2cc(Cl)c(-c3ccc(F)c4sc(N)nc34)c(F)c2n1 [Example E20] | > | 10000 |
| CC(CN1CCCCC1)Oc1nc(N2C3CCC2CNC3)c2cc(Cl)c(-c3ccc(F)c4sc(N)nc34)c(F)c2n1 (stereo not shown) [Example E8] | = | 50 |
| CC1CCCC(C)N1C[C@H](C)Oc1nc(N2CC3CCC(C2)N3)c2cc(Cl)c(-c3ccc(F)c4sc(N)nc34)c(F)c2n1 (stereo partly shown) [Example E38] | = | 804 |
| Cc1cc(N)nc(-c2c(Cl)cc3c(N4CC5CCC(C4)N5)nc(O[C@@H](C)CN4CCCCC4)nc3c2F)c1C(F)(F)F [Example E35] | = | 3300 |
| C[C@@H](CN1CCC1)Oc1nc(N2CC3CCC(C2)N3)c2cc(Cl)c(-c3ccc(F)c4sc(N)nc34)c(F)c2n1 [Example E23] | = | 146 |
| CN(C)C(=O)CCOc1nc(N2CC3CCC(C2)N3)c2cc(Cl)c(-c3ccc(F)c4sc(N)nc34)c(F)c2n1 [Example E40] | = | 2210 |

Origin of the recorded values: patent US20240140957A1
